Reported values: pIC50 for PI3Kbeta (Homo sapiens, UniProt P42338), one per item.
pIC50: −log10 of the molar value.

A selection of reference data follows.
> print(dat)
                                   compound  readout  reported.result
1  CC1=CC(=O)Nc2sc(-c3ccncc3)cc2C1(C)c1ccc(Cl)cc1 (stereo not drawn)    pIC50           > 7.00
2  CC(=O)Nc1cc(-c2cc3c(s2)C(=O)CCC3c2ccc(Cl)cc2)ccn1 (stereo not drawn)    pIC50     6.00 to 7.00

Form field: pIC50 recorded for O/N=C1/CCC(c2ccc(Cl)cc2)c2cc(-c3ccncc3)sc21 (stereo not drawn) with PI3Kbeta (Homo sapiens, UniProt P42338) (enter value)
> 7.00
